Species on record: Mus musculus
Assay: The compound was tested for Anticonvulsant activity against audiogenic seizures in DBA/2 mice after pretreatment with Aniracetam in tonic phase.
Format: functional
Mark 1 for ED50 under 40 µmol/kg, 0 if at or over.

• Nc1cccc(C2=NN=C(S)Cc3cc4c(cc32)OCO4)c1 = 0

Determine if Nc1ccc(C2=NN=C(S)Cc3cc4c(cc32)OCO4)cc1 shows ED50 strictly lower than 40 µmol/kg. 1

Threshold test, ED50 < 40 µmol/kg: CNC(=O)N1N=C(c2ccc(N)cc2)c2cc3c(cc2CC1=O)OCO3 1

====

Species on record: Mus musculus
Experiment: The compound was tested for Anticonvulsant activity against audiogenic seizures in DBA/2 mice after pretreatment with Aniracetam in clonic phase
Assay type: functional
Doc: threshold 60 µmol/kg (exclusive). Items with ED50 beneath it return MET; others return NOT MET.

• Nc1cccc(C2=NNC(=O)Cc3cc4c(cc32)OCO4)c1 = MET

Lab note: ED50 threshold 60 µmol/kg. Does this compound come in strictly under it? Nc1cccc(C2=NN=C(S)Cc3cc4c(cc32)OCO4)c1 NOT MET

ED50 under 60 µmol/kg? Item: Nc1ccc(C2=NN=C(S)Cc3cc4c(cc32)OCO4)cc1 MET

Check if ED50 falls below 60 µmol/kg for Nc1ccc(C2=NNC(=O)Cc3cc4c(cc32)OCO4)cc1 . NOT MET

Lab note: ED50 threshold 60 µmol/kg. Does this compound come in strictly under it? CNC(=O)N1N=C(c2ccc(N)cc2)c2cc3c(cc2CC1=O)OCO3 MET

These measurements were taken from ChEMBL document CHEMBL1132452.
